Molecular target: HLA-A*26:01
Assay: IEDB peptide-MHC binding, purified MHC/direct/fluorescence; filed as Kd, often an IC50 or EC50 that approximates it; bounds were set here for any values at or beyond the usual limits of such assays
Details: source organism: Yersinia pestis
readout: Kd

# sequence-content, data-value
records = [
    ("LTDEDKQNQ", "≥ 20 µM"),
]

###

Target: HLA-B*51:01
Assay: IEDB peptide-MHC binding, purified MHC/direct/fluorescence; filed as Kd, often an IC50 or EC50 that approximates it; bounds were set here for any values at or beyond the usual limits of such assays
Conditions: source organism: Rickettsia bellii OSU 85-389
pKd: −log10 of the molar value.

# sequence-content, pKd
rows = [
    ("EDFEIFYNL", "≤ 4.70"),
]

Measured values drawn from the Immune Epitope Database (IEDB) for this set.
